assayed target: first bromodomain (BrD1) of human BRD4 (Homo sapiens)
Construct: the first bromodomain (BrD1) of human BRD4; poly-His (cleaved yes)
procedure text: Fluorescence anisotropy binding assay (competition with FITC-labeled MS417 probe)
condition: FITC-MS417 probe 80 nM, PBS pH 7.4, 1 hour, 25° C., read-out: BRD4_1 IC50
Experimental: Fluorescence Anisotropy Binding Assay […] Binding affinity of the newly synthesized compounds to the BRD4 BrD1 was assessed in a fluorescence anisotropy assay using a fluorescein isothiocyanate (FITC)-labeled MS417 as an assay probe (Zhang et al. 2008 op.cit.). […] Measurements were obtained after 1 hour incubation of the fluorescent ligand and the protein at 25° C. with Safire 2 microplate reader (Tecan). […]
pIC50: −log10 of the molar value.
readout name: pIC50

Some compounds with recorded pIC50:
chemical smiles	assayed target	assay result
COC(=O)c1ccc(Br)c(NC2=C(C)C(=O)CCC2)c1	first bromodomain (BrD1) of human BRD4 (Homo sapiens)	< 5.00
CC1=C(Nc2cccc(-c3cn(Cc4ccccc4C)nn3)c2)CCC1=O	first bromodomain (BrD1) of human BRD4 (Homo sapiens)	> 6.00
CC1=C(Nc2cccc(C(=O)Nc3ccc(C)cc3)c2)CCC1=O	first bromodomain (BrD1) of human BRD4 (Homo sapiens)	5.00 to 6.00

Your task in this section: give pIC50 for each listed record.
1. CC1=C(Nc2ccc(C(=O)Nc3cccc4ccccc34)cc2)CCC1=O
2. COC(=O)c1cccc(NC2=C(C)C(=O)CC2)c1

Result:
1. 5.00 to 6.00
2. 5.00 to 6.00

The measurements presented in this section are drawn from patent US9884806B2.
